assay: qHTS of pediatric cancer cell lines to identify multiple opportunities for drug repurposing: Primary screen for BT-37 cells (AID 1347094); conditions: BT-37 viability, CellTiter-Glo luminescence, 48 h; series mostly up to 57.3 µM
Records with an inconclusive call do not appear. The source made the active and inactive calls. Calls come from the whole dose curve; as a rule, active = well fitted cell-killing curve with a large enough effect; inconclusive = small, poorly fitted or top-dose-only effect; inactive = flat fitted curve, though single readings scatter.
Classes used: active, inactive

molecule	assignedClass
CCCCCCCCCCCCCCCCCCCCCCO	inactive
COc1ccccc1N1CCN(CCN(C(=O)C2CCCCC2)c2ccccn2)CC1	inactive
CCc1nc(N)nc(N)c1-c1ccc(Cl)cc1	active
COc1cc(Nc2c(C#N)cnc3cc(OCCCN4CCN(C)CC4)c(OC)cc23)c(Cl)cc1Cl	active
N=C(N=C(N)N)N1CCOCC1	inactive
c1cnc2cc3c(cc2n1)C1CNCC3C1	inactive
CC(C)c1ccc2oc3nc(N)c(C(=O)O)cc3c(=O)c2c1	inactive
O=C(NC(Cc1cc(=O)[nH]c2ccccc12)C(=O)O)c1ccc(Cl)cc1 (centres undefined)	inactive
O=C(OC1C[C@H]2CC[C@@H](C1)[N+]21CCCC1)C(O)(c1ccccc1)c1ccccc1 (some centres undefined)	inactive
